Readings of LC retention time for the listed compounds
assay: RP, Thermo Scientific Acclaim RSLC 120 C18, 100 × 2.1 mm, 2.2 µm, 30 °C, 0.2 mL/min, estimated dead time 1.1 min; A: 90% water + 10% methanol + 0.01% formic acid + 5 mM ammonium formate, pH 3.61; B: methanol + 0.01% formic acid + 5 mM ammonium formate, pH 3.61; gradient (min/%B) 0/1 1/1 2/39 13/99.9 15/99.9 15.1/1 20.1/1; conditions: stereoisomer not certain

Compound: CC1C(=O)OC2CC[N+]3([O-])CC=C(COC(=O)C(C)(O)C1(C)O)C23 (stereo not drawn) [Monocrotaline-N-oxide]
Readout units: min
LC retention time: 3.19
//
Compound: CN(C)CC(CN1c2ccccc2Sc2ccccc21)N(C)C (stereo not drawn) [Promazine-amino]
Readout units: min
LC retention time: 8.54
//
Compound: COc1cc(C(=O)c2cnc(N)nc2N)cc(OC)c1OC [Trimethoprim (Impurity B)]
Readout units: min
LC retention time: 5.49
//
Compound: CCN(CC)CC#CCOC(=O)C(O)(c1ccccc1)C1CCCCC1 (stereo not drawn) [Oxybutynin]
Readout units: min
LC retention time: 8.92
//
Compound: CCOC(=O)C1=C(C)NC(C)=C(C(=O)OC)C1c1cccc(Cl)c1Cl (stereo not drawn) [Felodipine]
Readout units: min
LC retention time: 11
//
Compound: CCCOc1ccc(S(=O)(=O)N2CCN(CC)CC2)cc1-c1nc(=S)c2c([nH]1)c(CCC)nn2C [Propoxyphenyl Thiohomosidenafil]
Readout units: min
LC retention time: 10.5
//
Compound: Cc1ccc(C2(O)CCN(CCCC(=O)c3ccc(F)cc3)CC2)cc1 [Moperone]
Readout units: min
LC retention time: 6.59
//
Compound: O=C(O)CCCCn1cc(C(=O)c2cccc3ccccc23)c2ccccc21 [JWH-018-M-N-Pentanoic acid]
Readout units: min
LC retention time: 9.71

---

assay: RP, Thermo Scientific Acclaim RSLC 120 C18, 100 × 2.1 mm, 2.2 µm, 30 °C, 0.2 mL/min, estimated dead time 1.1 min; A: 90% water + 10% methanol + 0.01% formic acid + 5 mM ammonium formate, pH 3.61; B: methanol + 0.01% formic acid + 5 mM ammonium formate, pH 3.61; gradient (min/%B) 0/1 1/1 2/39 13/99.9 15/99.9 15.1/1 20.1/1; details: stereoisomer not certain

Compound: CC(=O)OC1CN2CCC1CC2 (centres undefined)
LC retention time: 4.87 min

Compound: OCCN1CCN(CCCN2c3ccccc3Sc3ccc(C(F)(F)F)cc32)CC1
LC retention time: 9.93 min

Compound: OCCOCCN1CCN(C(c2ccccc2)c2ccc(Cl)cc2)CC1 (centres undefined) [Hydroxyzine]
LC retention time: 8.28 min

Compound: COc1cc(CCN)c(OC)cc1Br
LC retention time: 5.56 min

Compound: C=C1CC23CC1(O)CCC2C12C=CC(O)C(C)(C(=O)O1)C2C3C(=O)O (centres undefined)
LC retention time: 4.91 min

Compound: O=C(c1ccccc1I)c1cn(CCCCCF)c2ccccc12
LC retention time: 10.5 min

Compound: CC(C)c1ccc(NC(N)=O)cc1
LC retention time: 7.76 min

Compound: CNS(=O)(=O)Cc1ccc2[nH]cc(CCN(C)C)c2c1
LC retention time: 3.43 min

Compound: CCN(CC)C(=O)c1cccnc1 [Nikethamide]
LC retention time: 4.64 min
